Form field: EC50 (one value per entry).
- assayed-target: EDG-1 (Homo sapiens, UniProt P21453)
- Sequence (P21453 whole entry): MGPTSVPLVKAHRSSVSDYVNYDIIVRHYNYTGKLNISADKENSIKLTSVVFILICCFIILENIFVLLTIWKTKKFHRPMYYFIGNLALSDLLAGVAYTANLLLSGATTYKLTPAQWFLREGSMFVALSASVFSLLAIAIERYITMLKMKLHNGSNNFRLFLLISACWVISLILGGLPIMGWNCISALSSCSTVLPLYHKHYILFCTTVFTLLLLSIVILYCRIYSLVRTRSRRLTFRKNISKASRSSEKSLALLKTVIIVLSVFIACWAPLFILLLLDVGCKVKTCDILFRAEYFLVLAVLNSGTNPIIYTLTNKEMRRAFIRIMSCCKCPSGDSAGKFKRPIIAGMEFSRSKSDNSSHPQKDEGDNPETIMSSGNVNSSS
- procedure-details: 35S-GTPγS binding assay, EDG1 (S1P1)
- Format: biochemical
- Parameters: expressed in transfected cells
- test-settings: comparative examples table; read-out: EDG1 EC50

structure-as-smiles: Cl.O=C(O)C1CCN(Cc2ccc(-c3noc(-c4ccc(C5CCCCC5)cc4)n3)cc2)CC1
EC50: 13.9 nM
--
structure-as-smiles: CC(C)Cc1ccc(-c2nc(-c3ccc(CN4CCC[C@@H](C(=O)O)C4)cc3)no2)cc1
EC50: 56.6 nM
--
structure-as-smiles: CC(C)Cc1ccc(-c2nc(-c3ccc(CN4CCC(C(=O)O)CC4)cc3)no2)cc1.Cl
EC50: 57.2 nM

Kindly review the next compound as well.
Measured on EDG-1 (Homo sapiens, UniProt P21453), `O=C(O)C1CCN(Cc2ccc(-c3noc(-c4ccc(-c5ccccc5)c(F)c4)n3)cc2)CC1` has a documented EC50 of 11.7 to 19.8 nM

---

- assayed-target: EDG-1 (Homo sapiens, UniProt P21453)
- procedure-details: 35S-GTPγS binding assay, EDG1 (S1P1)
- Format: biochemical
- Parameters: expressed in transfected cells
- test-settings: Table 1b; read-out: EDG1 EC50
Structures can show the parent of a compound that is named as a salt.
reported-endpoint: EC50

molecule: CC1(C(=O)O)CCN(Cc2ccc(-c3noc(-c4ccc(C(C)(C)C)c(Cl)c4)n3)cc2)CC1
assayed-target: EDG-1 (Homo sapiens, UniProt P21453)
EC50: < 10 nM
--
molecule: O=C(O)C1(COCc2ccccc2)CCN(Cc2ccc(-c3noc(-c4ccc(-c5ccccc5)c(Cl)c4)n3)cc2)CC1
assayed-target: EDG-1 (Homo sapiens, UniProt P21453)
EC50: < 1 nM
--
molecule: CC(C)Cc1ccc(-c2nc(-c3ccc(CN4CCC(Cc5ccco5)(C(=O)O)CC4)cc3)no2)cc1Cl
assayed-target: EDG-1 (Homo sapiens, UniProt P21453)
EC50: < 10 nM
--
molecule: COCCCCC1(C(=O)O)CCN(Cc2ccc(-c3noc(-c4ccc(CC(C)C)c(Cl)c4)n3)cc2)CC1
assayed-target: EDG-1 (Homo sapiens, UniProt P21453)
EC50: < 1 nM
--
molecule: CCCc1ccc(-c2nc(-c3ccc(CN4CCC(C)(C(=O)O)CC4)cc3)no2)cc1Cl
assayed-target: EDG-1 (Homo sapiens, UniProt P21453)
EC50: < 1 nM
--
molecule: CC(C)Cc1ccc(-c2nc(-c3ccc(CN4CCC(CCOc5ccccc5)(C(=O)O)CC4)cc3)no2)cc1Cl
assayed-target: EDG-1 (Homo sapiens, UniProt P21453)
EC50: < 1 nM
--
molecule: O=C(O)C1(Cc2ccccn2)CCN(Cc2ccc(-c3noc(-c4ccc(-c5ccccc5)c(Cl)c4)n3)cc2)CC1
assayed-target: EDG-1 (Homo sapiens, UniProt P21453)
EC50: < 1 nM
--
molecule: COCC1(C(=O)O)CCN(Cc2ccc(-c3noc(-c4ccc(C5CCCCC5)c(Cl)c4)n3)cc2)CC1
assayed-target: EDG-1 (Homo sapiens, UniProt P21453)
EC50: < 1 nM

Looking up `CCOCCOCC1(C(=O)O)CCN(Cc2ccc(-c3noc(-c4ccc(CC(C)C)c(Cl)c4)n3)cc2)CC1` , I see its EC50 listed as < 1 nM

Looking up `CC(C)Cc1ccc(-c2nc(-c3ccc(CN4CCC(COC5CCCC5)(C(=O)O)CC4)cc3)no2)cc1Cl` , I see its EC50 listed as < 1 nM

Looking up `CC(C)Oc1ccc(-c2nc(-c3ccc(CN4CCC(C)(C(=O)O)CC4)cc3)no2)cc1Cl` , I see its EC50 listed as < 10 nM

Looking up `C=CCC1(C(=O)O)CCN(Cc2ccc(-c3noc(-c4ccc(-c5ccccc5)c(Cl)c4)n3)cc2)CC1` , I see its EC50 listed as < 1 nM

Looking up `CC(C)Cc1ccc(-c2nc(-c3ccc(CN4CCC(Cc5cccc(C(F)(F)F)c5)(C(=O)O)CC4)cc3)no2)cc1Cl` , I see its EC50 listed as < 10 nM

Looking up `CC(C)Cc1ccc(-c2nc(-c3ccc(CN4CCC(C(=O)O)(C(C)C)CC4)cc3)no2)cc1Cl` , I see its EC50 listed as < 1 nM

Looking up `CC(C)Cc1ccc(-c2nc(-c3ccc(CN4CCC(Cc5ccccc5F)(C(=O)O)CC4)cc3)no2)cc1Cl` , I see its EC50 listed as < 1 nM

Looking up `O=C(O)C1(Cc2ccccn2)CCN(Cc2ccc(-c3noc(-c4ccc(C5CCCCC5)c(Cl)c4)n3)cc2)CC1` , I see its EC50 listed as < 1 nM

Looking up `COc1ccc(CC2(C(=O)O)CCN(Cc3ccc(-c4noc(-c5ccc(C6CCCCC6)c(Cl)c5)n4)cc3)CC2)cc1` , I see its EC50 listed as < 1 nM

Looking up COCCOCC1(C(=O)O)CCN(Cc2ccc(-c3noc(-c4ccc(CC(C)C)c(Cl)c4)n3)cc2)CC1 [Example 33, potassium salt] , I see its EC50 listed as < 1 nM

Looking up `CC(C)Cc1ccc(-c2nc(-c3ccc(CN4CCC(COC(C)C)(C(=O)O)CC4)cc3)no2)cc1Cl` , I see its EC50 listed as < 1 nM

Looking up `O=C(O)C1(CO)CCN(Cc2ccc(-c3noc(-c4ccc(-c5ccccc5)c(Cl)c4)n3)cc2)CC1` , I see its EC50 listed as < 1 nM

Looking up `CC(C)Cc1ccc(-c2nc(-c3ccc(CN4CCC(Cc5cccnc5)(C(=O)O)CC4)cc3)no2)cc1Cl` , I see its EC50 listed as < 1 nM

Looking up `C=CCC1(C(=O)O)CCN(Cc2ccc(-c3noc(-c4ccc(OC(C)C)c(Cl)c4)n3)cc2)CC1` , I see its EC50 listed as < 1 nM

Looking up `CC(C)Cc1ccc(-c2nc(-c3ccc(CN4CCC(COCc5ccccc5)(C(=O)O)CC4)cc3)no2)cc1Cl` , I see its EC50 listed as < 1 nM

Looking up `COc1ccccc1CC1(C(=O)O)CCN(Cc2ccc(-c3noc(-c4ccc(CC(C)C)c(Cl)c4)n3)cc2)CC1` , I see its EC50 listed as < 1 nM

Looking up `CCCC1(C(=O)O)CCN(Cc2ccc(-c3noc(-c4ccc(-c5ccccc5)c(Cl)c4)n3)cc2)CC1` , I see its EC50 listed as < 1 nM

Looking up `COCC1(C(=O)O)CCN(Cc2ccc(-c3noc(-c4ccc(CC(C)C)c(Cl)c4)n3)cc2)CC1` , I see its EC50 listed as < 1 nM

Looking up `CCC1(C(=O)O)CCN(Cc2ccc(-c3noc(-c4ccc(OC(C)C)c(Cl)c4)n3)cc2)CC1` , I see its EC50 listed as < 10 nM

Looking up `CC1(C(=O)O)CCN(Cc2ccc(-c3noc(-c4ccc(C5CCCCC5)c(Cl)c4)n3)cc2)CC1` , I see its EC50 listed as < 1 nM

Looking up `CC(C)Cc1ccc(-c2nc(-c3ccc(CN4CCC(Cc5ccncc5)(C(=O)O)CC4)cc3)no2)cc1Cl` , I see its EC50 listed as < 1 nM

---

- procedure-details: Pharmacokinetic parameters in Swiss mice after oral administration
- test-settings: mouse, in vivo, 1 mg/kg p.o., n = 4
Form field: Cmax (one value per entry).
Output spec: scalar in ng/mL, unitless text.

The following compounds have reported results that may help.
compound: COCCOCC1(C(=O)O)CCN(Cc2ccc(-c3noc(-c4ccc(CC(C)C)c(Cl)c4)n3)cc2)CC1
unit-abbrev: ng/mL
Cmax: 843
--
compound: CC(C)Cc1ccc(-c2nc(-c3ccc(CN4CC(C(=O)O)C4)cc3)no2)cc1 [Comparative compound 5, reference compound]
unit-abbrev: ng/mL
Cmax: 495

Looking up `CC(C)Cc1ccc(-c2nc(-c3ccc(CN4CCC(C)(C(=O)O)CC4)cc3)no2)cc1Cl` , I see its Cmax listed as 798

---

- assayed-target: EDG-1 (Homo sapiens, UniProt P21453)
- procedure-details: 35S-GTPγS binding assay, EDG1 (S1P1)
- Assay type: biochemical
- Set-up: expressed in transfected cells
- test-settings: Table 1b; read-out: EDG1 EC50
pEC50: −log10 of the molar value.
Form field: pEC50 (one value per entry).

The following compounds have reported results that may help.
compound: O=C(O)C1(Cc2cccnc2)CCN(Cc2ccc(-c3noc(-c4ccc(-c5ccccc5)c(Cl)c4)n3)cc2)CC1 [Example 58]
pEC50: > 9.00
--
compound: CC(C)Cc1ccc(-c2nc(-c3ccc(CN4CCC(C)(C(=O)O)CC4)cc3)no2)cc1Cl [Example 2]
pEC50: > 9.00
--
compound: C=CCC1(C(=O)O)CCN(Cc2ccc(-c3noc(-c4ccc(CC(C)C)c(Cl)c4)n3)cc2)CC1 [Example 12]
pEC50: > 9.00

Looking up COCC1(C(=O)O)CCN(Cc2ccc(-c3noc(-c4ccc(OC(C)C)c(Cl)c4)n3)cc2)CC1 [Example 57] , I see its pEC50 listed as > 8.00

Looking up CCC1(C(=O)O)CCN(Cc2ccc(-c3noc(-c4ccc(CC(C)C)c(Cl)c4)n3)cc2)CC1 [Example 11] , I see its pEC50 listed as > 9.00

Looking up CC(C)Cc1ccc(-c2nc(-c3ccc(CN4CCC(Cc5cccs5)(C(=O)O)CC4)cc3)no2)cc1Cl [Example 62] , I see its pEC50 listed as > 9.00
